assay: A CellTox Green Cytotoxicity Assay to monitor cytotoxicity in HepG2 cells - 24 hour (AID 1224878); conditions: CellTox Green fluorescence; series mostly up to 76.8 µM; further: nearly all actives have a fitted effect of over 45% in size
Records with an inconclusive call do not appear. Activity calls are given as the source filed them. The call rests on the fitted dose curve; in most records, active means well fitted activation curve with a large enough effect in the repeat runs; inconclusive means weak or mixed curves; inactive means flat fitted curve, though single readings scatter.
Choose one outcome from this list and give only that: 1 = active, -1 = inactive

Query: Record lookup: outcome of this test for Cc1cccc(C)c1NC(=O)CN1CCN(CCCC(c2ccc(F)cc2)c2ccc(F)cc2)CC1 ?
Result: 1

Query: Record lookup: outcome of this test for CCCCCCCCCCCCN(CCO)CCO ?
Result: 1

Query: Record lookup: outcome of this test for C/C=C/c1ccc(OC)c(OC)c1 ?
Result: -1

Query: Record lookup: outcome of this test for CC1=C(/C=C/C(C)=C/C=C/C(C)=C\C=O)C(C)(C)CCC1 ?
Result: -1

Query: Record lookup: outcome of this test for CC1=CP(=O)(c2ccccc2)CC1 (stereo unspecified) ?
Result: -1

Query: Record lookup: outcome of this test for CN(C)c1ccc(N=Nc2ccccc2C(=O)O)cc1 ?
Result: -1

Query: Record lookup: outcome of this test for Cc1ccc(O)cn1 ?
Result: -1

Query: Record lookup: outcome of this test for CCCCCCCOC(=O)c1ccc(O)cc1 ?
Result: 1

Query: Record lookup: outcome of this test for CCCCCCCCCCOCC(O)CN (stereo unspecified) ?
Result: 1

Query: Record lookup: outcome of this test for NCCCCCCNCCCCCCN ?
Result: -1

Query: Record lookup: outcome of this test for CC1CCCNC1 (stereo unspecified) ?
Result: -1

Query: Record lookup: outcome of this test for Oc1c(Br)cc(Br)c2cccnc12 ?
Result: -1

Query: Record lookup: outcome of this test for CCc1c(Br)c(Br)c(Br)c(Br)c1Br ?
Result: -1

Query: Record lookup: outcome of this test for CN(C)CCN1CCOCC1 ?
Result: -1

Query: Record lookup: outcome of this test for c1ccc2c(c1)CCC2 ?
Result: -1

Query: Record lookup: outcome of this test for NC(=O)c1nc(-c2cccc(-c3cc(F)ccc3OCC(F)(F)C(F)(F)F)c2)n[nH]1 ?
Result: 1

Query: Record lookup: outcome of this test for O=C1NCCN1CCN1CCC(c2cn(-c3ccc(F)cc3)c3ccc(Cl)cc23)CC1 ?
Result: 1

Query: Record lookup: outcome of this test for CN(C)CCCN1c2ccccc2CCc2ccccc21 ?
Result: 1

Query: Record lookup: outcome of this test for COc1nccnc1CC(C)C ?
Result: -1

Query: Record lookup: outcome of this test for Cc1cn[nH]c1 ?
Result: -1

Query: Record lookup: outcome of this test for CCOC(/C=C(\C)CCC=C(C)C)OCC ?
Result: -1

Query: Record lookup: outcome of this test for CCN(CC)CCOc1ccc(C(O)(Cc2ccc(Cl)cc2)c2ccc(C)cc2)cc1 (stereo unspecified) ?
Result: 1

Query: Record lookup: outcome of this test for O=C1OC(=O)c2cccc3cccc1c23 ?
Result: -1

Query: Record lookup: outcome of this test for C=C1C(C)(C)[C@@]2(Cl)C(Cl)[C@]1(Cl)C(Cl)(Cl)C2(Cl)Cl (stereo partly specified) ?
Result: 1

Query: Record lookup: outcome of this test for CC(=O)C=O ?
Result: -1

Query: Record lookup: outcome of this test for COc1ccccc1C=O ?
Result: -1

Query: Record lookup: outcome of this test for O=C(O)CC(=O)O ?
Result: -1

Query: Record lookup: outcome of this test for CCC(C)C(=O)OC (stereo unspecified) ?
Result: -1

Query: Record lookup: outcome of this test for C/C=C/C=N/NC(=O)c1ccncc1 ?
Result: -1

Query: Record lookup: outcome of this test for CCCCCCCC/C=C\CCCCCCCC(=O)NCc1ccc(O)c(OC)c1 ?
Result: -1

Query: Record lookup: outcome of this test for c1cc[nH]c1 ?
Result: -1
